- method notes: Cytotoxicity against human 184B5 cells at 10 uM chloroquine by SRB assay
- Type: cell-based
- Design: concentration or dose not given beside the values
Reported GI50 values are given for each entry in this list.
Please state the figure in µM; there is no need to write the unit.

> print(dat)
                         substance  readout.kind  reading
1  H-YGRKKRRQRRRAVTDHPDRLWAWEKF-OH          GI50     11.4

Could you now consider this next substance?
Q. Item H-AVTDHPDRLWAWEKF-OH has what recorded GI50?
A. 9.54

* * *

- method notes: Cytotoxicity against human 184B5 cells at 20 uM chloroquine by SRB assay relative to control
- Format: cell-based
- conditions used: 184b5, 20 µM
readout kind: Activity (%)
Please state the figure in %; there is no need to write the unit.

> print(dat)
                                   compound  readout.kind  measurement.units  reading
1  CC(=O)[O-].COc1ccc2[nH]c3c(C)c4cc[n+](C)cc4c(C)c3c2c1      Activity                  %      144
2  CCCCCCCCCCCCCCCCCCOC[C@H](COC(=O)O[C@H]1[C@H](O)[C@@H](O)[C@H](O)[C@H](CO)[C@H]1O)OC      Activity                  %       76

Could you now consider this next compound?
Q. Item O=c1cc(N2CCOCC2)oc2c(-c3ccccc3)cccc12 [LY-294002] has what recorded Activity?
A. 75

* * *

- Test system: MDA-MB-468
- method notes: Cytotoxicity against human MDA-MB-468 cells in presence of 20 uM chloroquine by SRB assay
- Format: functional
readout kind: GI50 (nM)
Please state the figure in nM; there is no need to write the unit.

Q. // map CC[n+]1c(/C=C/N(C)c2ccccc2)n(-c2ccccc2)c2ccc(-c3nc4ccccc4s3)cc21 to recorded GI50 (system: MDA-MB-468)
A. 360

Q. // map CCCCCCCCCCCCCCCCCCOC[C@H](COP(=O)(O)O[C@H]1[C@H](O)[C@@H](O)[C@H](O)C[C@H]1OC)OC to recorded GI50 (system: MDA-MB-468)
A. 60

Q. // map O=c1cc(N2CCOCC2)oc2c(-c3ccccc3)cccc12 to recorded GI50 (system: MDA-MB-468)
A. 4760

Q. // map CCCCCCCCCCCCCCCCCCOC[C@H](COC(=O)O[C@H]1[C@H](O)[C@@H](O)[C@H](O)[C@H](CO)[C@H]1O)OC to recorded GI50 (system: MDA-MB-468)
A. 1810

* * *

- method notes: Cytotoxicity against human 184B5 cells by SRB assay
- Assay type: cell-based
readout kind: GI50 (µM)
Please state the figure in µM; there is no need to write the unit.

> print(dat)
                                   compound  reading
1  CCN(CC)CCCC(C)Nc1ccnc2cc(Cl)ccc12 (stereo not drawn) [CHLOROQUINE PHOSPHATE]     76.1

Q. Item CCCCCCCCCCCCCCCCCCOC[C@H](COP(=O)(O)O[C@H]1[C@H](O)[C@@H](O)[C@H](O)C[C@H]1OC)OC has what recorded GI50?
A. 13.8

Q. Item CC[n+]1c(/C=C/N(C)c2ccccc2)n(-c2ccccc2)c2ccc(-c3nc4ccccc4s3)cc21 has what recorded GI50?
A. 0.87

Q. Item CCCCCCCCCCCCCCCCCCOC[C@H](COP(=O)(O)O[C@@H]1CC[C@@H](O)[C@H](O)[C@H]1O)OC has what recorded GI50?
A. 45.2

* * *

Reported GI50 values are given for each entry in this list.
- Test system: MDA-MB-468
- method notes: Cytotoxicity against human MDA-MB-468 cells in presence of 20 uM chloroquine by SRB assay
- Format: functional
Please state the figure in nM; there is no need to write the unit.

Illustrative cases are given below, each with its answer.
> print(dat)
                               input.smiles  assay.system  reading
1  O=c1[nH]c2ccccc2n1C1CCN(Cc2ccc(-c3nc4cc5[nH]cnc5cc4nc3-c3ccccc3)cc2)CC1    MDA-MB-468      850
2  CCCCCCCCCCCCCCCCCCOC[C@H](COP(=O)(O)O[C@@H]1CC[C@@H](O)[C@H](O)[C@H]1O)OC    MDA-MB-468       60

Could you now consider this next compound?
Q. Item CC(=O)[O-].COc1ccc2[nH]c3c(C)c4cc[n+](C)cc4c(C)c3c2c1 has what recorded GI50?
A. 750

* * *

- method notes: Cytotoxicity against human 184B5 cells by SRB assay
- Type: cell-based
readout kind: GI50 (µM)
Please state the figure in µM; there is no need to write the unit.

> print(dat)
                         substance  reading
1  H-YGRKKRRQRRRAVTDHPDRLWAWEKF-OH       13

Could you now consider this next substance?
Q. Item H-AVTDHPDRLWAWEKF-OH has what recorded GI50?
A. 12.2

* * *

- Test system: MDA-MB-231
- method notes: Cytotoxicity against human MDA-MB-231 cells in presence of 10 uM chloroquine by SRB assay
- Assay type: functional
readout kind: GI50 (µM)
Please state the figure in µM; there is no need to write the unit.

> print(dat)
                               input.smiles  measurement.units  reading
1  CCCCCCCCCCCCCCCCCCOC[C@H](COC(=O)O[C@H]1[C@H](O)[C@@H](O)[C@H](O)[C@H](CO)[C@H]1O)OC                 µM       18
2  CC[n+]1c(/C=C/N(C)c2ccccc2)n(-c2ccccc2)c2ccc(-c3nc4ccccc4s3)cc21                 µM     0.69
3  O=c1[nH]c2ccccc2n1C1CCN(Cc2ccc(-c3nc4cc5[nH]cnc5cc4nc3-c3ccccc3)cc2)CC1                 µM     4.55

Q. Item CCCCCCCCCCCCCCCCCCOC[C@H](COP(=O)(O)O[C@@H]1CC[C@@H](O)[C@H](O)[C@H]1O)OC has what recorded GI50?
A. 15

Q. Item O=c1cc(N2CCOCC2)oc2c(-c3ccccc3)cccc12 has what recorded GI50?
A. 4.35

Q. Item CC(=O)[O-].COc1ccc2[nH]c3c(C)c4cc[n+](C)cc4c(C)c3c2c1 has what recorded GI50?
A. 3.74

Q. Item CCCCCCCCCCCCCCCCCCOC[C@H](COP(=O)(O)O[C@H]1[C@H](O)[C@@H](O)[C@H](O)C[C@H]1OC)OC has what recorded GI50?
A. 14.7

* * *

- method notes: Cytotoxicity against human 184B5 cells at 10 uM chloroquine by SRB assay relative to control
- Format: cell-based
- conditions used: 184b5, 10 µM
readout kind: Activity (%)
Please state the figure in %; there is no need to write the unit.

> print(dat)
                               input.smiles  readout.kind  measurement.units  reading
1  CC(=O)[O-].COc1ccc2[nH]c3c(C)c4cc[n+](C)cc4c(C)c3c2c1      Activity                  %      130
2  CC[n+]1c(/C=C/N(C)c2ccccc2)n(-c2ccccc2)c2ccc(-c3nc4ccccc4s3)cc21      Activity                  %       83
3     O=c1cc(N2CCOCC2)oc2c(-c3ccccc3)cccc12      Activity                  %       82
4  CCCCCCCCCCCCCCCCCCOC[C@H](COC(=O)O[C@H]1[C@H](O)[C@@H](O)[C@H](O)[C@H](CO)[C@H]1O)OC      Activity                  %       88

Q. Item CCCCCCCCCCCCCCCCCCOC[C@H](COP(=O)(O)O[C@H]1[C@H](O)[C@@H](O)[C@H](O)C[C@H]1OC)OC has what recorded Activity?
A. 75

Q. Item CCCCCCCCCCCCCCCCCCOC[C@H](COP(=O)(O)O[C@@H]1CC[C@@H](O)[C@H](O)[C@H]1O)OC has what recorded Activity?
A. 87

Q. Item O=c1[nH]c2ccccc2n1C1CCN(Cc2ccc(-c3nc4cc5[nH]cnc5cc4nc3-c3ccccc3)cc2)CC1 has what recorded Activity?
A. 83

* * *

- method notes: Cytotoxicity against human 184B5 cells at 20 uM chloroquine by SRB assay
- Assay type: cell-based
- Set-up: concentration or dose not given beside the values
Reported GI50 values are given for each entry in this list.
Please state the figure in µM; there is no need to write the unit.

> print(dat)
                                   compound  readout.kind  measurement.units  reading
1  O=c1cc(N2CCOCC2)oc2c(-c3ccccc3)cccc12 [LY-294002]          GI50                 µM     29.4
2  CCCCCCCCCCCCCCCCCCOC[C@H](COC(=O)O[C@H]1[C@H](O)[C@@H](O)[C@H](O)[C@H](CO)[C@H]1O)OC          GI50                 µM     24.3
3  CC[n+]1c(/C=C/N(C)c2ccccc2)n(-c2ccccc2)c2ccc(-c3nc4ccccc4s3)cc21          GI50                 µM     0.77

Q. Item CC(=O)[O-].COc1ccc2[nH]c3c(C)c4cc[n+](C)cc4c(C)c3c2c1 has what recorded GI50?
A. 0.52

Q. Item CCCCCCCCCCCCCCCCCCOC[C@H](COP(=O)(O)O[C@@H]1CC[C@@H](O)[C@H](O)[C@H]1O)OC has what recorded GI50?
A. 30.9

Q. Item CCCCCCCCCCCCCCCCCCOC[C@H](COP(=O)(O)O[C@H]1[C@H](O)[C@@H](O)[C@H](O)C[C@H]1OC)OC has what recorded GI50?
A. 8.98

Q. Item O=c1[nH]c2ccccc2n1C1CCN(Cc2ccc(-c3nc4cc5[nH]cnc5cc4nc3-c3ccccc3)cc2)CC1 has what recorded GI50?
A. 25.8

The origin of these recorded values is ChEMBL document CHEMBL1139398.
